Each recorded value in this set is attributed to patent US20220025021A1.

- Assay Target: HIV-1 Env of pseudovirus 0260.v5.c36 (HIV-1)
- Protocol Text: cell-based or functional assay
Kindly supply the reported neutralization IC50 values for the records listed here.
Give bare numbers, in µg/mL.

Below are worked cases with known answers.
• MS-81 (antibody, V domains shown) VH: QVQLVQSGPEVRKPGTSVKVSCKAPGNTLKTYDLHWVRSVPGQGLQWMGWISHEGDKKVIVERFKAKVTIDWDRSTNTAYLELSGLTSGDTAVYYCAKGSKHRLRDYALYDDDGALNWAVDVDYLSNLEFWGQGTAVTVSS VL: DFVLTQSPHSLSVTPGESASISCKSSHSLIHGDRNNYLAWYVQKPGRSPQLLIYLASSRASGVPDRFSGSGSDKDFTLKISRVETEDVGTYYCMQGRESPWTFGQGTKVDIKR = 0.02
• MS-88 (antibody, V domains shown) VH: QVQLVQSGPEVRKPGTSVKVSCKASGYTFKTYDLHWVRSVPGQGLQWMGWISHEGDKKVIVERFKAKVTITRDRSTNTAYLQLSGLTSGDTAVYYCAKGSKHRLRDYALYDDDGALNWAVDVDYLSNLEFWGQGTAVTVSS VL: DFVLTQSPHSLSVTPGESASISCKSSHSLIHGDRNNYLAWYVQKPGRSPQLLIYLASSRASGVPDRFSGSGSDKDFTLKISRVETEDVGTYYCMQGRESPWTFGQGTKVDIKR = 0.178

Now for the binder whose neutralization IC50 we want.
Need neutralization IC50, item MS-85 (antibody, V domains shown) VH: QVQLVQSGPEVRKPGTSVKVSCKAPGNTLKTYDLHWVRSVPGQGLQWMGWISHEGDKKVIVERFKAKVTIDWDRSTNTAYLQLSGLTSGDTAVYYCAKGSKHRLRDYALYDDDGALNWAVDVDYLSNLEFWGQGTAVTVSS VL: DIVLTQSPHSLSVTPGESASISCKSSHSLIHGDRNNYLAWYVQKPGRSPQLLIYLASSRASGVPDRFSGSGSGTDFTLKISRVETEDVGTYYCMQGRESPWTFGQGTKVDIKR
0.019
